target: EGFR IgG; experiment: ELISA binding of peptides to EGFR IgG; settings: Table 12; antibody concentration for half maximal signal; read-out: EC50 for peptide binding to EGFR IgG
Quick reference: EC50 of the listed items.
# number only, unit nM dropped from output

Consider the following illustrative entries.
[[record]]
molecule = "CSCC[C@@H]1NC(=O)[C@H](CC(C)C)NC(=O)[C@H](CO)NC(=O)[C@H](CCCNC(=N)N)NC(=O)[C@@H](NC(=O)[C@H](Cc2c[nH]c3ccccc23)NC(=O)[C@@H](N)CC(=O)O)CSSC[C@@H](C(=O)N2CCC[C@H]2C(=O)O)NC(=O)[C@H](CC(C)C)NC(=O)[C@H](CC(=O)O)NC(=O)[C@H]([C@@H](C)O)NC(=O)[C@H](Cc2ccc(O)cc2)NC(=O)[C@H](CO)NC1=O [Peptide-1]"
parametermeasured = "EC50"
recordedresult = 52

[[record]]
molecule = "CC(C)[C@@H]1NC(=O)[C@H](Cc2c[nH]c3ccccc23)NC(=O)[C@H]([C@@H](C)O)NC(=O)[C@H](CC(N)=O)NC(=O)[C@H](CC(=O)O)NC(=O)[C@H](CCC(N)=O)NC(=O)CNC(=O)[C@@H](NC(=O)[C@@H](N)Cc2ccc(O)cc2)CSSC[C@@H](C(=O)N[C@@H](Cc2ccccc2)C(=O)O)NC(=O)CNC(=O)[C@H](CCC(=O)O)NC(=O)[C@H](CCCNC(=N)N)NC1=O [Peptide-6]"
parametermeasured = "EC50"
recordedresult = 0.3

[[record]]
molecule = "CC[C@H](C)[C@@H]1NC(=O)[C@H](CC(C)C)NC(=O)[C@H](Cc2c[nH]cn2)NC(=O)[C@H](C)NC(=O)[C@H](CC(=O)O)NC(=O)[C@H](C)NC(=O)[C@@H](NC(=O)[C@H](CO)NC(=O)[C@@H](N)[C@@H](C)O)CSSC[C@@H](C(=O)N[C@@H](CO)C(=O)O)NC(=O)[C@H](CO)NC(=O)[C@@H]2CCCN2C(=O)[C@H](C)NC1=O [Peptide-2]"
parametermeasured = "EC50"
recordedresult = 84

[[record]]
molecule = "CC(C)[C@@H]1NC(=O)[C@H](CCCNC(=N)N)NC(=O)[C@H](CC(=O)O)NC(=O)[C@H](Cc2c[nH]c3ccccc23)NC(=O)[C@H](CCC(N)=O)NC(=O)[C@@H](NC(=O)[C@@H](N)CC(N)=O)CSSC[C@@H](C(=O)N[C@@H](CO)C(=O)O)NC(=O)[C@H](C)NC(=O)[C@H](Cc2ccc(O)cc2)NC(=O)[C@H]([C@@H](C)O)NC(=O)[C@H](Cc2c[nH]cn2)NC(=O)[C@H](CCC(=O)O)NC1=O [Peptide-3]"
parametermeasured = "EC50"
recordedresult = 413


Exercise: Any idea what EC50 was measured for CSCC[C@H](N)C(=O)N[C@@H](CC(N)=O)C(=O)N[C@H]1CSSC[C@@H](C(=O)N[C@@H](CC(C)C)C(=O)N[C@H](C(=O)O)C(C)C)NC(=O)[C@H](Cc2ccc(O)cc2)NC(=O)[C@H](CCC(=O)O)NC(=O)[C@H](C(C)C)NC(=O)[C@H](Cc2c[nH]c3ccccc23)NC(=O)[C@H](CC(C)C)NC(=O)[C@H](CCCNC(=N)N)NC(=O)[C@H](CC(N)=O)NC(=O)[C@H](CC(C)C)NC1=O [Peptide-5] ?
Solution: 2

The measured values listed here are drawn from patent US12433953B2.
